Experiment: Test B: Cytotoxicity Assay
Assay type: cell-based
Settings: human, uninfected MT-4 cells, same protocol as Test A, CellTiter-Glo
reported-metric: CC50 at 5 days

| molecule | reported-metric | result |
| --- | --- | --- |
| CC(C)(O)C#Cc1ccc(-c2cccc3c2CNC3=O)c([C@H](Cc2cc(F)cc(F)c2)NC(=O)Cn2nc(C(F)(F)F)c3c2C(F)(F)[C@@H]2C[C@H]32)n1 [Compound 14E] | CC50 at 5 days | 6.82 µM |
| O=C(Cn1nc(C(F)F)c2c1C(F)(F)CCC2(F)F)N[C@@H](Cc1cc(F)cc(F)c1)c1nc(-c2cc[nH]c(=O)c2)ccc1-c1ccc2c(c1)C(=O)NC2 | CC50 at 5 days | > 53.2 µM |
| CC(C)(O)C#Cc1ccc(-c2ccc(F)c(C(N)=O)c2)c([C@H](Cc2cc(F)cc(F)c2)NC(=O)Cn2nc(C(F)(F)F)c3c2C(F)(F)[C@@H]2C[C@H]32)n1 | CC50 at 5 days | 6.93 µM |
| O=C(Cn1nc(C(F)F)c2c1C(F)(F)CCC2(F)F)N[C@@H](Cc1cc(F)cc(F)c1)c1nc(-c2cc[nH]c(=O)c2)ccc1-c1cc[nH]c(=O)c1 | CC50 at 5 days | > 53.2 µM |
| O=C(Cn1nc(C(F)F)c2c1C(F)(F)CCC2(F)F)N[C@@H](Cc1cc(F)cc(F)c1)c1nc(-c2cnc3[nH]ccc3c2)ccc1-c1cnc2[nH]ccc2c1 | CC50 at 5 days | 5.66 µM |
| NC(=O)c1ccc(-c2cnc3[nH]ccc3c2)c([C@H](Cc2cc(F)cc(F)c2)NC(=O)Cn2nc(C(F)F)c3c2C(F)(F)CCC3(F)F)n1 | CC50 at 5 days | 8.57 µM |

====

Test: Test B: Cytotoxicity Assay
Assay type: cell-based
Settings: human, uninfected MT-4 cells, same protocol as Test A, CellTiter-Glo

| compound-string | reading-unit | bound-operator | CC50 at 5 days |
| --- | --- | --- | --- |
| CC(C)(O)C#Cc1ccc(-c2cccc3c(=O)[nH]c(=O)[nH]c23)c([C@H](Cc2cc(F)cc(F)c2)NC(=O)Cn2nc(C(F)(F)F)c3c2C(F)(F)[C@@H]2C[C@H]32)n1 | µM | = | 12.6 |
| CC(C)(O)C#Cc1ccc(-c2ccc3c(c2)C(=O)NC3)c([C@H](Cc2cc(F)cc(F)c2)NC(=O)Cn2nc(C(F)F)c3c2C(F)(F)CCC3(F)F)n1 | µM | = | 14.6 |
| CC(C)(O)C#Cc1cnc([C@H](Cc2cc(F)cc(F)c2)NC(=O)Cn2nc(C(F)F)c3c2C(F)(F)CCC3(F)F)c(-c2ccc3c(c2)C(=O)NC3)c1 | µM | = | 22.8 |
| NC(=O)c1cc(-c2ccc(-c3ccc(F)c(C(N)=O)c3)c([C@H](Cc3cc(F)cc(F)c3)NC(=O)Cn3nc(C(F)F)c4c3C(F)(F)CCC4(F)F)n2)ccc1F | µM | > | 53.2 |
| CC(C)(O)C#Cc1ccc(-c2cccc3c(=O)[nH]cnc23)c([C@H](Cc2cc(F)cc(F)c2)NC(=O)Cn2nc(C(F)(F)F)c3c2C(F)(F)[C@@H]2C[C@H]32)n1 | µM | = | 14.3 |

====

Assay: Test B: Cytotoxicity Assay
Assay type: cell-based
Conditions: human, uninfected MT-4 cells, same protocol as Test A, CellTiter-Glo
Description: For the antiviral assay, 40 μL of 1× test concentration of 3-fold serially diluted compound in culture medium with 10% FBS was added to each well of a 384-well plate (10 concentrations) in quadruplicate. […] Cell lysis was carried out by incubating at room temperature for 10 min and then chemiluminescence was read. Compound cytotoxicity and the corresponding CC50 values was determined using the same protocol as described in the antiviral assay (Test A) except that uninfected cells were used.
// reported CC50 at 5 days per item
reported-metric: CC50 at 5 days (µM)

| molecule | bound-operator | number |
| --- | --- | --- |
| O=C(Cn1nc(C(F)F)c2c1C(F)(F)CCC2(F)F)N[C@@H](Cc1cc(F)cc(F)c1)c1ncc(-c2cnc3[nH]ccc3c2)cc1-c1cnc2[nH]ccc2c1 | > | 53.2 |
| COc1cc(-c2ccc(-c3ccc4c(c3)C(=O)NC4)c([C@H](Cc3cc(F)cc(F)c3)NC(=O)Cn3nc(C(F)F)c4c3C(F)(F)CCC4(F)F)n2)ccn1 | = | 22 |
| CC(C)(O)C#Cc1ccc(-c2ccc3c(c2)C(=O)NC32CC2)c([C@H](Cc2cc(F)cc(F)c2)NC(=O)Cn2nc(C(F)(F)F)c3c2C(F)(F)[C@@H]2C[C@H]32)n1 | = | 4.15 |
| O=C(Cn1nc(C(F)F)c2c1C(F)(F)CCC2(F)F)N[C@@H](Cc1cc(F)cc(F)c1)c1ncc(-c2ccc3c(c2)C(=O)NC3)cc1-c1ccc2c(c1)C(=O)NC2 [Compound 10B] | > | 53.2 |
| O=C(Cn1nc(C(F)F)c2c1C(F)(F)CCC2(F)F)N[C@@H](Cc1cc(F)cc(F)c1)c1nc(-c2ccc3c(c2)C(=O)NC3)ccc1-c1ccc2c(c1)C(=O)NC2 | > | 53.2 |
